Numbers sourced from patent US11214565B2.

molecular target: LRRK2 G2019S enzyme (Homo sapiens (Human), UniProt Q5S007, G2019S); experiment: LRRK2 G2019S TR-FRET biochemical kinase assay (LRRKtide substrate); details: Table B-2; 5 nM LRRK2, 134 μM ATP, 60 minute reaction, 23° C.
Sequence (Q5S007 whole entry G2019S): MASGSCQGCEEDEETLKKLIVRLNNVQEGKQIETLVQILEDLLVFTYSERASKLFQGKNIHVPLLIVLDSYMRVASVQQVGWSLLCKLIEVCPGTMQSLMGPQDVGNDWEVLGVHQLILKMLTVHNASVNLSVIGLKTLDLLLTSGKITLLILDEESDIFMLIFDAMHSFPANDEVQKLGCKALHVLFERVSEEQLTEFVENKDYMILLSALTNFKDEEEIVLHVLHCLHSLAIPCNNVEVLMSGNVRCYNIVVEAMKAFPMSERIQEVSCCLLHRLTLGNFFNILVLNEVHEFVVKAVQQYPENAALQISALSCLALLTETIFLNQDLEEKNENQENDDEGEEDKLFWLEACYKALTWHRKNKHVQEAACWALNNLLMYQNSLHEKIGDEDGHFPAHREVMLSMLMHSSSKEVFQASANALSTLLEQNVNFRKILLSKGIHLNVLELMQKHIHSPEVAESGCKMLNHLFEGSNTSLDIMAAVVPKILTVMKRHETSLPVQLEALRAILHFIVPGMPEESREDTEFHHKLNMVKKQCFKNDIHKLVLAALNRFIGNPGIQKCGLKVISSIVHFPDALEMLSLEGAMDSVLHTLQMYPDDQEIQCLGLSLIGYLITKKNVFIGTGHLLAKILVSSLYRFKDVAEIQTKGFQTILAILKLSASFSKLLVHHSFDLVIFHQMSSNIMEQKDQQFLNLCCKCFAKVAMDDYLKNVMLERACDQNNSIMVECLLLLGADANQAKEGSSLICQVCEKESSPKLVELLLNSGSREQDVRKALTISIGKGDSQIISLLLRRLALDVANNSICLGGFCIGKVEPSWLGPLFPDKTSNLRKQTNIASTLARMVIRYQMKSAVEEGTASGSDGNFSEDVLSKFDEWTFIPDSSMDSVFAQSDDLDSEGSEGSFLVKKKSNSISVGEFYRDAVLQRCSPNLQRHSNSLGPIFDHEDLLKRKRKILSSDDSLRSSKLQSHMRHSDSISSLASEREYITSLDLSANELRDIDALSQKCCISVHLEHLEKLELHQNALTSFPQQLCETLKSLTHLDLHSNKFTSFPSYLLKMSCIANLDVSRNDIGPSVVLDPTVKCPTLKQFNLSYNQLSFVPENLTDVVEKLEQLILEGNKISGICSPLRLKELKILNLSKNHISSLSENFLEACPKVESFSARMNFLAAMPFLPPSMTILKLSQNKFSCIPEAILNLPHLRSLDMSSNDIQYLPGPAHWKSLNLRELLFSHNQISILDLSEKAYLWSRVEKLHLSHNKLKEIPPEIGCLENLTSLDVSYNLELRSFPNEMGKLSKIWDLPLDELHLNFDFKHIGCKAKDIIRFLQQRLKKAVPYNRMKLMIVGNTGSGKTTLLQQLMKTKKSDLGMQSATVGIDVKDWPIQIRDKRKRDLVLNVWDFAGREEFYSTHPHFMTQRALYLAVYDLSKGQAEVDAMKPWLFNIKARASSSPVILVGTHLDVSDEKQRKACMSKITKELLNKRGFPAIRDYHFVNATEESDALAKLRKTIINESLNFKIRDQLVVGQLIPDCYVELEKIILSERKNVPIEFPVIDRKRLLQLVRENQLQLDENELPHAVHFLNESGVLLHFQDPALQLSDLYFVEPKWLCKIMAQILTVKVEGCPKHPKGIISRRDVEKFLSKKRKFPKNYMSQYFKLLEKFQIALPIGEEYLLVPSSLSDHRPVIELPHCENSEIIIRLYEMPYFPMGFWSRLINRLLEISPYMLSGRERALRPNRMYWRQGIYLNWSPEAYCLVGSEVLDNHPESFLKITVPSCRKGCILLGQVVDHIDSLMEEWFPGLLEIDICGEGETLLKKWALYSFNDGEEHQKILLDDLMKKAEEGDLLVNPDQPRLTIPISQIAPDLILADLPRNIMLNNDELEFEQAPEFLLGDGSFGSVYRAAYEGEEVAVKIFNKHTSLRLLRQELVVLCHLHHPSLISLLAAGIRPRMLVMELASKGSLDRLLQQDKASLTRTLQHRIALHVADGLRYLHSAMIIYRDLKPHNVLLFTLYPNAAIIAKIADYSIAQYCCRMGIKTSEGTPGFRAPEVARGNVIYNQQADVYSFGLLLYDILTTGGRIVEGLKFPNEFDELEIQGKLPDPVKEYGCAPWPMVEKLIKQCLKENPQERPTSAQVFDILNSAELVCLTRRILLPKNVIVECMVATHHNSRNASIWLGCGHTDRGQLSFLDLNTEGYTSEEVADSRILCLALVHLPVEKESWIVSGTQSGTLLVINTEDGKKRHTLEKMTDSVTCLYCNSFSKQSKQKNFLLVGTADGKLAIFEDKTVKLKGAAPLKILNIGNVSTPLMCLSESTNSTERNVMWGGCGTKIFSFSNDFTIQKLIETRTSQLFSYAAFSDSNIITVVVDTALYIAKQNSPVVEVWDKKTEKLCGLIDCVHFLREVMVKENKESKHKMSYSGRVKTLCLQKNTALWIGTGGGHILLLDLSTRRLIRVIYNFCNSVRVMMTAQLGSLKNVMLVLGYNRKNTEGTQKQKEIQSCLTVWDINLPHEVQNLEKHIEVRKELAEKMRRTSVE
pIC50: −log10 of the molar value.
Reported values of pIC50 for individual entries

Examples with their reported pIC50 follow.
COc1nc(Nc2cn(C)nc2C)nc2[nH]cc(Cl)c12    7.70 to 8.70
CCNc1nc(Nc2cn(C(C)(C)C#N)nc2C)nc2[nH]cc(Cl)c12    ≥ 9.00
CNc1nc(Nc2cn(C(C)(C)C#N)nc2C)nc2[nH]cc(Cl)c12    ≥ 9.00
CCOc1nc(Nc2cn(C(C)(C)C#N)nc2C)nc2[nH]cnc12    7.70 to 8.70

Alright, here's another compound for you.
The compound "CNc1nc(Nc2cnn(C)c2C)nc2[nH]cc(Cl)c12" showed pIC50 equal to 8.70 to 9.00
